- TESTED_ON: T1, human CLEC-1A expressed on the cell membrane (human, UniProt Q8NC01 1-280)
- T1 construct: Endogenous on human U266 myeloma cells, on monocyte-derived TGFb-DC and macrophages; on CHO cells after transduction with a Clec-1 expressing lentivirus; also called U266 CLEC1; CLEC-1A on U266 cells
- T1 sequence: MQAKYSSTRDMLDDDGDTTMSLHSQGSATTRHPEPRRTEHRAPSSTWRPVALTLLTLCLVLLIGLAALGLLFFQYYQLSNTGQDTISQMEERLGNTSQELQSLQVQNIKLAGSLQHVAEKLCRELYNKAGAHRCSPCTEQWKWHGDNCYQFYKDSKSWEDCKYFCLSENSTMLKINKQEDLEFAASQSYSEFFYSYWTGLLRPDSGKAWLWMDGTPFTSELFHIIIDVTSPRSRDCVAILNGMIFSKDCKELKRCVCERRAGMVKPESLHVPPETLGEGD
- ASSAY_PROCEDURE: flow cytometry on U266 cells
- Protocol: Method: To measure binding of anti-CLEC1 on human U266 cell lines (pre-blocked with Fcblock to blocking FcR), antibodies at different concentrations were incubated for 30 min at 4° C., and washed before stained 30 min at 4° C. with PE-labelled anti-human IgG (Biolegend; reference 409304). Samples were analyzed on Cytoflex cytofluorometer (Beckman Coulter). The MFI of anti-CLEC1 was compared between all anti-CLEC1 antibodies and percentage of stained cells was analysed in all conditions.
QUANTITY_NAME: EC50 (µg/mL)
Lab book: enter the figure in µg/mL, no units written.

Which EC50 value is on record for chimeric anti-CLEC-1A antibody 5D1 (antibody, human IgG4 S228P, kappa, V domains shown, also called 5D1chim; 5D1-VHwt-FcG4m / 5D1-VLwt-CLhk) VH: QVQLKESGPGLVAPSQSLSITCTISGFSLTSYGVHWVRQPPGKGLEWLVVIWSDGSTIYNSALKSRLSISKDNSKSQVFLKMNSLQTDDTAMYYCARHGGYYNYFDYWGQGTTLTVSS VL: DIQMNQSPSSLSASLGDTITITCHASQNINVWLSWYQQKPGNIPKLLIYKASNLHTGVPSRFSGSGSGTGFTLTISSLQPEDIATYYCQQGQSYWTFGGGTKLEIKR ?
0.0847
